- Test system: johnsongrass (Sorghum halepense)
- experiment.notes: Test C preemergence
- Type: in vivo
- condition: preemergence, Rate 62 g/ha, scale 0 to 100
This section presents compounds with their documented Plant response rating, Johnsongrass values.
The response must contain the number and no unit.

Illustrative cases are given below, each with its answer.
| compound | measurement.target | quantitative.result |
| --- | --- | --- |
| CCC(CC)c1ccn(C2CCN(c3ccc(Br)c(OC)c3)C2=O)n1 (centres unmarked) | johnsongrass (Sorghum halepense) | 0 |
| CCC(C)Oc1cccc(N2CCC(n3ccc(C(C)(C)C)n3)C2=O)c1 (centres unmarked) | johnsongrass (Sorghum halepense) | 0 |
| CCCC(C)c1ccn(C2CCN(c3cccc(OCC)c3)C2=O)n1 (centres unmarked) | johnsongrass (Sorghum halepense) | 20 |
| COc1cc(N2CCC(n3ccc(C(C)(C)C)n3)C2=O)ccc1Cl (centres unmarked) | johnsongrass (Sorghum halepense) | 45 |

Give recorded Plant response rating, Johnsongrass. CC(C)(C)c1ccn(C2OCN(c3cccc(OC(F)F)c3)C2=O)n1 (centres unmarked) 80

Hey, just so you know, these numbers are from patent US7138361B2.
